- Assay target: HLA-A*24 (human)
- Assay name: UV-ligand exchange, b2m ELISA
The binders listed here are annotated with their peptide exchange yield.
Measured quantity: peptide exchange yield

>>> df
                          binder       measured_quantity  value_reported
0  VYTLDIPVL [… (SEQ ID No 160)]  peptide exchange yield           > 75%
1  FYSRLLQKF [… (SEQ ID No 203)]  peptide exchange yield       50 to 75%
2  YYVYIMNHL [… (SEQ ID No 225)]  peptide exchange yield       50 to 75%
3  VYGFQWRHF [… (SEQ ID No 276)]  peptide exchange yield           > 75%
4  AYLHSHALI [… (SEQ ID No 274)]  peptide exchange yield           > 75%
5  KFSSFSLFF [… (SEQ ID No 164)]  peptide exchange yield       50 to 75%
6  RYAEEVGIF [… (SEQ ID No 199)]  peptide exchange yield       50 to 75%
7  VHIPEVYLI [… (SEQ ID No 205)]  peptide exchange yield       50 to 75%
